B1: IMPA1 (parent)
chain: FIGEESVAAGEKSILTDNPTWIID

# Variants of: B1
# assay procedure: protein stability index of a GFP-peptide fusion (GPS, HEK-293T) (PSI 1-6); higher = more stable;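 further: lentivirally expressed fusions sorted by FACS into six bins by GFP to DsRed ratio, PSI derived from sequencing read proportions per bin multiplied by bin number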
# run parameters: c terminus: a fixed tail appended
Classes are defined on protein stability index with ranges low = under 2, middle = from 2 up to 3, high = 3 and over

## Task Returns: class label. Input: F1T
## Result high

## Task Returns: class label. Input: A9I
## Result low

## Task Returns: class label. Input: L15E
## Result middle

## Task Returns: class label. Input: D17K
## Result low

Others:
## Task Returns: class label. Input: I23Y
## Result high

## Task Returns: class label. Input: F1V
## Result high

## Task Returns: class label. Input: S13K
## Result middle

## Task Returns: class label. Input: A9P
## Result middle

## Task Returns: class label. Input: S6W
## Result middle

## Task Returns: class label. Input: F1W
## Result high

## Task Returns: class label. Input: L15N
## Result middle
